- Assay Remarks: Example 1: multiple-dose randomized 3-way crossover PK study of two IV tramadol regimens vs 100 mg oral q6h
- Recorded Conditions: human, plasma, iv, 50 mg, Cmax(44-48), 50 mg IV regimen (h 0, 2, 4, then q4h to h 44); steady-state; plasma, mean
Counter-ions that a name gives are not always drawn.
Readout Name: Cmax (ng/mL)
Your answer is read as ng/mL, so omit the unit and give the number.

# input Indicate the recorded Cmax value for this molecule: COc1cccc([C@]2(O)CCCC[C@H]2CN(C)C)c1 (racemic) [Tramadol, hydrochloride]
# output 711

###

- Assay Remarks: Example 1: multiple-dose randomized 3-way crossover PK study of two IV tramadol regimens vs 100 mg oral q6h
- Recorded Conditions: human, plasma, iv, 75 mg, Cmax, 75 mg IV regimen (h 0, 3, 6, then q6h to h 42); plasma, mean
Counter-ions that a name gives are not always drawn.
Readout Name: Cmax (ng/mL)
Your answer is read as ng/mL, so omit the unit and give the number.

# input Indicate the recorded Cmax value for this compound: COc1cccc([C@]2(O)CCCC[C@H]2CN(C)C)c1 (racemic) [Tramadol, hydrochloride]
# output 932

###

- Assay Remarks: Example 1: multiple-dose randomized 3-way crossover PK study of two IV tramadol regimens vs 100 mg oral q6h
- Recorded Conditions: human, plasma, iv, 50 mg, AUCtau 1, 50 mg IV regimen (h 0, 2, 4, then q4h to h 44); first dosing interval; mean
Where a name gives a salt, the structure may show the parent alone.
Readout Name: AUC (ng·h/mL)
Your answer is read as ng·h/mL, so omit the unit and give the number.

# input Indicate the recorded AUC value for this compound: COc1cccc([C@]2(O)CCCC[C@H]2CN(C)C)c1 (racemic) [Tramadol, hydrochloride]
# output 624

###

- Assay Remarks: Example 4: multiple dose steady-state dose proportionality study, tramadol injection 50/100 mg IV and Ultram tablet 50/100 mg oral q6h
- Type: in vivo, human
- Recorded Conditions: human, plasma, iv, 100 mg
Structures can show the parent of a compound that is named as a salt.
Readout Name: AUC (ng·h/mL)
Your answer is read as ng·h/mL, so omit the unit and give the number.

# input Indicate the recorded AUC value for this compound: COc1cccc([C@]2(O)CCCC[C@H]2CN(C)C)c1 (racemic) [Tramadol, hydrochloride]
# output 4730

###

- Assay Remarks: Example 1: multiple-dose randomized 3-way crossover PK study of two IV tramadol regimens vs 100 mg oral q6h
- Recorded Conditions: human, plasma, iv, 50 mg, plasma concentration, Mean, 50 mg IV Dose (h 0, 2, 4, then q4h to h 44); Time 45.5 hr
Where a name gives a salt, the structure may show the parent alone.
Readout Name: concentration at 45.5 h (ng/mL)
Your answer is read as ng/mL, so omit the unit and give the number.

# input Indicate the recorded concentration at 45.5 h value for this compound: COc1cccc([C@]2(O)CCCC[C@H]2CN(C)C)c1 (racemic) [Tramadol, hydrochloride]
# output 553

###

- Assay Remarks: Example 1: multiple-dose randomized 3-way crossover PK study of two IV tramadol regimens vs 100 mg oral q6h
- Recorded Conditions: human, plasma, iv, 75 mg, Cmax(42-48), 75 mg IV regimen (h 0, 3, 6, then q6h to h 42); steady-state; plasma, mean
Counter-ions that a name gives are not always drawn.
Readout Name: Cmax (ng/mL)
Your answer is read as ng/mL, so omit the unit and give the number.

# input Indicate the recorded Cmax value for this compound: COc1cccc([C@]2(O)CCCC[C@H]2CN(C)C)c1 (racemic) [Tramadol, hydrochloride]
# output 827
